Endpoint label: melting point

Answer for every listed entry: what is its melting point? The entries follow.
1. Cc1ccc(C)c(-c2cc3ccc(O)c(O)c3oc2=O)c1 [Compound 33]
2. COc1ccc(-c2cc3cc(O)ccc3oc2=O)cc1OC [Compound 39]
3. COc1ccc(-c2cc3ccc(O)c(O)c3oc2=O)cc1OC [Compound 43]

1. 190.3 to 190.5 °C
2. 216.1 to 217.9 °C
3. 290.5 to 291.9 °C

----------
# System: STZ-diabetic mice
# Experiment notes: Acute hypoglycemic assay in STZ-diabetic mice
# Assay type: in vivo
# Condition info: STZ-diabetics mice, 30 mg/kg of bw per os, 5h
Provide the reported Blood glucose concentration of each item.
Numbers only, in mM.

Compound	Unit text	Reading
O=c1oc2ccc(O)cc2cc1-c1ccc(O)cc1 [Compound 17, 6-Hydroxy-3-(4-hydroxyphenyl)-coumarin]	mM	8.3

Answer for every listed entry: what is its Blood glucose concentration? The entries follow.
1. Cc1ccc(-c2cc3c(O)cc(O)cc3oc2=O)cc1 [Compound 25]
2. Cc1ccccc1-c1cc2ccc(O)cc2oc1=O [Compound 11, 7-Hydroxy-3-(2-methylphenyl)-coumarin]

1: 8.9; 2: 11.3

Answer for every listed entry: what is its Blood glucose concentration? The entries follow.
1. O=c1oc2cc(O)cc(O)c2cc1-c1ccc(O)cc1 [Compound 28]
2. COc1ccc(-c2cc3c(O)cc(O)cc3oc2=O)cc1 [Compound 35]

1: 12.7; 2: 6.3

----------
Provide the reported pIC50 of each item.
# Target: α-Glucosidase (Saccharomyces cerevisiae, UniProt P53341)
# Construct: purchased Sigma Aldrich G0660-750UN
# Sequence (P53341 whole entry): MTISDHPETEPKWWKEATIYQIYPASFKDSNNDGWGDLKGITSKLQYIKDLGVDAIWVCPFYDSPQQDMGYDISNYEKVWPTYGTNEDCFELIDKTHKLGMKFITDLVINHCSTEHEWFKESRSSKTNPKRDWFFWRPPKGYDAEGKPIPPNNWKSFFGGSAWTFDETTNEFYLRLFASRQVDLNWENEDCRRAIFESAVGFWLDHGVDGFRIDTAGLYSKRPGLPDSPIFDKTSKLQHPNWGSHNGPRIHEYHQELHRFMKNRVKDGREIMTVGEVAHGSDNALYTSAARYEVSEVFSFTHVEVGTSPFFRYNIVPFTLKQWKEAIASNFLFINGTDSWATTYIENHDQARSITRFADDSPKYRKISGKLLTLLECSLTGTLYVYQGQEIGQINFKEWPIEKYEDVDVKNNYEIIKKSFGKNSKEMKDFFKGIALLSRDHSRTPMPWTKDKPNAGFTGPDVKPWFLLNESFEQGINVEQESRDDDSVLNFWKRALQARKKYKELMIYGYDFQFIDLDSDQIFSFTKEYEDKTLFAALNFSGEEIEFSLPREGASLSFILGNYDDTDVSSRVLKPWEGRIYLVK
# Experiment notes: biochemical
# Assay type: biochemical
pIC50: −log10 of the molar value.

Compound	Reading
Cc1ccc(C)c(-c2cc3ccc(O)c(O)c3oc2=O)c1	< 3.00
O=c1oc2ccccc2cc1-c1ccc(F)cc1	< 3.00
COc1ccc2cc(-c3ccc(O)cc3)c(=O)oc2c1 [Compound 26, 7-Methoxy-3-(4-hydroxyphenyl)-coumarin]	< 3.00

Now examine the next entry.
pIC50 reading for O=c1oc2c(O)cccc2cc1-c1ccc(O)cc1 [Compound 14, 8-Hydroxy-3-(4-hydroxyphenyl)-coumarin] : 3.67

----------
# Experiment notes: Oral toxicity to mice (Lorke's method)
# Condition info: both sexes, mouse, in vivo, Kunming mice, observed 14 days
Provide the reported LD50 at 14 days of each item.

Here's what some known entries look like.
Molecule	Endpoint label	Reading
COc1ccc(-c2cc3c(O)cc(O)cc3oc2=O)cc1 [Compound 35]	LD50 at 14 days	> 5000 mg/kg
O=c1oc2cc(O)cc(O)c2cc1-c1ccc(O)cc1 [Compound 28]	LD50 at 14 days	> 5000 mg/kg
Cc1ccc(-c2cc3c(O)cc(O)cc3oc2=O)cc1 [Compound 25]	LD50 at 14 days	> 5000 mg/kg

Answer for every listed entry: what is its LD50 at 14 days? The entries follow.
1. O=c1oc2ccc(O)cc2cc1-c1ccc(O)cc1 [Compound 17, 6-Hydroxy-3-(4-hydroxyphenyl)-coumarin]
2. Cc1ccccc1-c1cc2ccc(O)cc2oc1=O [Compound 11, 7-Hydroxy-3-(2-methylphenyl)-coumarin]

1. > 5000 mg/kg
2. > 5000 mg/kg

----------
Provide the reported Blood glucose concentration of each item.
# System: STZ-diabetic mice
# Experiment notes: Acute hypoglycemic assay in STZ-diabetic mice
# Format: in vivo
# Condition info: STZ-diabetics mice, 100 mg/kg of bw per os, 7h
One number for each entry, in mM.

Here's what some known entries look like.
Molecule	Blood glucose concentration (mM)
Cc1ccccc1-c1cc2ccc(O)cc2oc1=O [Compound 11, 7-Hydroxy-3-(2-methylphenyl)-coumarin]	8.9
O=c1oc2ccc(O)cc2cc1-c1ccc(O)cc1 [Compound 17, 6-Hydroxy-3-(4-hydroxyphenyl)-coumarin]	6.9
O=c1oc2cc(O)cc(O)c2cc1-c1ccc(O)cc1	11.8
COc1ccc(-c2cc3c(O)cc(O)cc3oc2=O)cc1	7.2

Now examine the next entry.
Blood glucose concentration reading for Cc1ccc(-c2cc3c(O)cc(O)cc3oc2=O)cc1 : 8.1
